Form field: CC50 at 24 h (one value per entry).
Assay Info: Bile acid toxicity: intracellular ATP
Type: cell-based, rat
Particulars: rat, sandwich-cultured hepatocytes (SCH)
The reply should be a number in µM, with the unit left off.

INSERT INTO measurements (compound, recorded_metric, unit_abbreviation, observed_value) VALUES
  ('C[C@H](CCC(=O)O)[C@H]1CC[C@H]2[C@@H]3CC[C@@H]4C[C@H](O)CC[C@]4(C)[C@H]3CC[C@]12C [LCA, lithocholic acid]', 'CC50 at 24 h', 'µM', 147);

Dear colleague, please send me the reported CC50 at 24 h for C[C@H](CCC(=O)O)[C@H]1CC[C@H]2[C@@H]3[C@H](O)C[C@@H]4C[C@H](O)CC[C@]4(C)[C@H]3CC[C@]12C [CDCA, chenodeoxycholic acid] when you can.
351

====

Assay Info: Bile acid toxicity: intracellular ATP
Assay type: cell-based, human
Particulars: human, sandwich-cultured hepatocytes (SCH)
Recorded Metric: CC50 at 24 h (µM)
The reply should be a number in µM, with the unit left off.

INSERT INTO results (given_smiles, recorded_metric, observed_value) VALUES
  ('C[C@H](CCC(=O)O)[C@H]1CC[C@H]2[C@@H]3[C@H](O)C[C@@H]4C[C@H](O)CC[C@]4(C)[C@H]3CC[C@]12C', 'CC50 at 24 h', 568);

// next item, CC50 at 24 h requested
Dear colleague, please send me the reported CC50 at 24 h for C[C@H](CCC(=O)O)[C@H]1CC[C@H]2[C@@H]3CC[C@@H]4C[C@H](O)CC[C@]4(C)[C@H]3CC[C@]12C when you can.
155

====

Assay Info: Bile acid toxicity: LDH release in human SCH
Assay type: cell-based
Particulars: human, sandwich-cultured hepatocytes (SCH)
Recorded Metric: CC50 at 24 h

Dear colleague, please send me the reported CC50 at 24 h for C[C@H](CCC(=O)O)[C@H]1CC[C@H]2[C@@H]3[C@H](O)C[C@@H]4C[C@H](O)CC[C@]4(C)[C@H]3CC[C@]12C when you can.
972 µM

====

Form field: CC50 at 24 h (one value per entry).
Assay Info: Bile acid toxicity: LDH release in rat SCH
Format: cell-based
Particulars: rat, sandwich-cultured hepatocytes (SCH)
The reply should be a number in µM, with the unit left off.

Dear colleague, please send me the reported CC50 at 24 h for C[C@H](CCC(=O)O)[C@H]1CC[C@H]2[C@@H]3CC[C@@H]4C[C@H](O)CC[C@]4(C)[C@H]3CC[C@]12C when you can.
146

Dear colleague, please send me the reported CC50 at 24 h for C[C@H](CCC(=O)O)[C@H]1CC[C@H]2[C@@H]3[C@H](O)C[C@@H]4C[C@H](O)CC[C@]4(C)[C@H]3CC[C@]12C when you can.
243
